# measurement-target: TSPO (Homo sapiens, UniProt P30536)
# Sequence (P30536 whole entry): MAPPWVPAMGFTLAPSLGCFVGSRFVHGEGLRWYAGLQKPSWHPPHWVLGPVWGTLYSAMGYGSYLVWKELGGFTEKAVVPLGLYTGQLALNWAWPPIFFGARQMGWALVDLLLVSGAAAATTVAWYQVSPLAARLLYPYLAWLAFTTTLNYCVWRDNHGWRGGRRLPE
pKi: −log10 of the molar value.

| smiles-record | pKi |
| --- | --- |
| CC[C@@H](C)N(C)C(=O)c1nc2ccccc2c(-c2ccccc2)c1CF | 9.22 |

---

# protocol-summary: Pharmacokinetic/Pharmacodynamic study of PK11195 tissue exposure
# Assay type: in vivo
# setup-conditions: Sprague-Dawley, rat, rats, brain, mean±SEM, n=3, read-out: exposure level

| compound | concentration at 1 h [µg/mL] |
| --- | --- |
| CCC(C)N(C)C(=O)c1cc2ccccc2c(-c2ccccc2Cl)n1 (stereo not shown) | 0.011 |

---

# Tested on: TSPO
# protocol-summary: Competition binding assay against ^3H-PK11195 in human brain homogenate (HAB, MAB, LAB)
# setup-conditions: unpaired t-test
endpoint-name: difference between HAB and LAB in individually calculated affinity values

| smiles-record | result |
| --- | --- |
| COc1ccccc1CN(C(C)=O)c1cnccc1Oc1ccccc1 | significant difference |
| CCN(CC)C(=O)c1nc2ccccc2c(-c2ccccc2)c1CF | significant difference |
